- ASSAYED_SYSTEM: Cbl-b (Homo sapiens)
- EXPERIMENT_SUMMARY: Cbl-b activity assay (Cbl-b inhibition assay), TR-FRET of Cbl-b interaction with UbcH5B-Ub
- Type: biochemical
- RECORDED_CONDITIONS: assay buffer with 100 mM NaCl, 60 nM Src kinase; read-out: Cbl-b activity IC50
pIC50: −log10 of the molar value.
READOUT_TYPE: pIC50

-- ask pIC50 lookup needed for Cc1cc(C(=O)Nc2cccc(C3(Cc4nocc4C)COC3)c2)nc(C2CC2)n1 [Compound 509] , thanks.
-- reply > 7.00

-- ask pIC50 lookup needed for CC(c1cc2c(c(C3CC3)n1)CN(c1cccc(C3(Cc4nncn4C)COC3)c1)C2=O)N1CCCC1 (stereo not shown) [Example 584] , thanks.
-- reply > 7.00

-- ask pIC50 lookup needed for COc1cc(C(=O)Nc2cccc([C@H](C)Sc3nncn3C)c2)nc(C(F)(F)F)c1 [Compound 71] , thanks.
-- reply 6.52 to 7.00

-- ask pIC50 lookup needed for C[C@H](Sc1nncn1C)c1cccc(NC(=O)c2cc(C(F)(F)F)c3ccccc3n2)c1 [Compound 83] , thanks.
-- reply 5.52 to 6.00

-- ask pIC50 lookup needed for Cn1cnnc1CC1(c2cccc(N3Cc4c(cc(CN5CCC(C)(C#N)CC5)cc4C(F)(F)F)C3=O)c2)COC1 [Example 642] , thanks.
-- reply > 7.00

-- ask pIC50 lookup needed for Cn1cnnc1C(F)(F)[C@](C)(F)c1cccc(N2Cc3c(cc(CN4C[C@@H](F)[C@@H](F)C4)cc3C(F)(F)F)C2=O)c1 [Compound 461] , thanks.
-- reply > 7.00

-- ask pIC50 lookup needed for Cn1cnnc1[C@H](F)C1(c2cccc(N3Cc4c(cc(CN5CCCCC5)cc4C(F)(F)F)C3=O)c2)COC1 [Example 674b] , thanks.
-- reply > 7.00

###

Task for the reader: assign each of the following molecules its reported fold induction at 10 µM.
- Tested on: primary human total T-cells
- EXPERIMENT_SUMMARY: T-cell activation assessed by cytokine secretion (GM-CSF, IFNγ, TNFα)
- Format: cell-based
- RECORDED_CONDITIONS: CD3 alone stimulation, 10 μM, read-out: TNFα secretion

-- ask fold induction at 10 µM lookup needed for "Cc1cc(C(=O)Nc2cccc(C3(Cc4nncn4C)COC3)c2)nc(C2CC2)n1" , thanks.
-- reply 1.51 to 2

-- ask fold induction at 10 µM lookup needed for C[C@H](Cc1nncn1C)c1cccc(N2Cc3c(cccc3C(F)(F)F)C2=O)c1 [Compound 255a] , thanks.
-- reply ≤ 1.5

-- ask fold induction at 10 µM lookup needed for "C[C@H](c1cc2c(c(C(F)(F)F)c1)CN(c1cccc(C3(Cc4nncn4C)COC3)c1)C2=O)N1CC[C@H](F)C1" , thanks.
-- reply 1.51 to 2

-- ask fold induction at 10 µM lookup needed for "Cn1cnnc1CC1(c2cccc(N3Cc4c(cc(CN5CC(F)C5)cc4C(F)(F)F)C3=O)c2)COC1" , thanks.
-- reply 1.51 to 2

###

Task for the reader: assign each of the following molecules its reported fold induction at 4 µM.
- Test system: T-cell
- EXPERIMENT_SUMMARY: IL-2 secretion from T-cells co-stimulated with anti-CD3 and anti-CD28 antibody (Biological Example 2)
- Assay type: cell-based, human
- RECORDED_CONDITIONS: Homo sapiens, T-cell, fold change over baseline; 4 μM Cbl-b inhibitor; primary human total T-cells; read-out: IL-2 secretion Anti-CD3/Anti-CD28 stimulation

-- ask fold induction at 4 µM lookup needed for "C[C@H](Sc1nncn1C)c1cccc(NC(=O)c2cc(C(C)(C)O)c(Cl)cn2)c1" , thanks.
-- reply 1.01 to 2.5

-- ask fold induction at 4 µM lookup needed for Cn1cnnc1C(F)(F)[C@](C)(F)c1cccc(N2Cc3c(cccc3C(F)(F)F)C2=O)c1 [Compound 296a] , thanks.
-- reply 2.51 to 5

-- ask fold induction at 4 µM lookup needed for "Cn1cnnc1CC(C)(C)c1cccc(N2Cc3c(cccc3C(F)(F)F)C2=O)c1" , thanks.
-- reply > 7.5

-- ask fold induction at 4 µM lookup needed for "C[C@H](Cc1nncn1C)c1cccc(NC(=O)c2cncc(C(F)(F)F)n2)c1" , thanks.
-- reply 5 to 7.5

-- ask fold induction at 4 µM lookup needed for "C[C@H](Cc1nncn1C)c1cc(OC2COC2)nc(N2Cc3c(cccc3C(F)(F)F)C2=O)c1" , thanks.
-- reply 5 to 7.5

-- ask fold induction at 4 µM lookup needed for Cc1[nH]cnc1CC(C)c1cccc(N2Cc3c(cccc3C(F)(F)F)C2=O)c1 (centres unmarked) , thanks.
-- reply < 1

-- ask fold induction at 4 µM lookup needed for "C[C@H](Cc1nncn1C)c1cccc(NC(=O)c2cc(C(=O)N3C[C@@H](O)C[C@H]3C)ccn2)c1" , thanks.
-- reply < 1

-- ask fold induction at 4 µM lookup needed for "Cc1ccc(C(=O)Nc2cccc([C@H](C)Sc3nncn3C)c2)nc1C" , thanks.
-- reply 2.51 to 5

###

- ASSAYED_SYSTEM: Cbl-b (Homo sapiens, UniProt Q13191)
- Sequence (Q13191 36-427): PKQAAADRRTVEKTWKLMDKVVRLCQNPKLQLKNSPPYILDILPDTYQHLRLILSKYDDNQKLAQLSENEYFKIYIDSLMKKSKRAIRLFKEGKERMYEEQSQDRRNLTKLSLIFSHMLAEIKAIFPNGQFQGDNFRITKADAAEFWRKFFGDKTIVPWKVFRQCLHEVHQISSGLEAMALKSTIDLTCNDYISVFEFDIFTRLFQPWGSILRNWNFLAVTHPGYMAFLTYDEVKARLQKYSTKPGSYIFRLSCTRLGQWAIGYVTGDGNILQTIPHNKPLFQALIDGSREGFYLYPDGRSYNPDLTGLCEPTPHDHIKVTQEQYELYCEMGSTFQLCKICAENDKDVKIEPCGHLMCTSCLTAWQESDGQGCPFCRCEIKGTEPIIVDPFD
- EXPERIMENT_SUMMARY: Cbl-b inhibition assay (Cbl-b activity assay, FRET, Biological Example 1; 100 mM NaCl, 60 nM Src kinase)
- Format: biochemical
- RECORDED_CONDITIONS: upper bound stated in text lists; read-out: IC50 values in the Cbl-b inhibition assay of Biological Example 1
Task for the reader: assign each of the following molecules its reported IC50.

-- ask Recorded IC50 for Cc1cnnn1CC(C)c1cccc(NC(=O)c2cccc(C(F)(F)F)n2)c1 (stereo not drawn) [Compound 218] with Cbl-b (Homo sapiens, UniProt Q13191), please?
-- reply ≤ 500 nM

-- ask Recorded IC50 for C[C@H](Cc1nncn1C)c1cc(OC2COC2)nc(N2Cc3c(cccc3C(F)(F)F)C2=O)c1 [Compound 354] with Cbl-b (Homo sapiens, UniProt Q13191), please?
-- reply ≤ 300 nM

-- ask Recorded IC50 for C[C@H](Cc1nncn1C)c1cccc(NC(=O)c2ccnc3ccnn23)c1 [Compound 328] with Cbl-b (Homo sapiens, UniProt Q13191), please?
-- reply ≤ 100 nM

-- ask Recorded IC50 for Cc1cc(C)nc(C(=O)Nc2cccc([C@H](C)Sc3nncn3C)c2)c1 [Compound 56] with Cbl-b (Homo sapiens, UniProt Q13191), please?
-- reply ≤ 1000 nM

-- ask Recorded IC50 for Cn1cnnc1C[C@]1(c2cccc(N3Cc4c(cc(CN5CCC6(CC6)C5)cc4C(F)(F)F)C3=O)c2)CCOC1 (single isomer, unassigned) [Compound 517b] with Cbl-b (Homo sapiens, UniProt Q13191), please?
-- reply ≤ 100 nM

-- ask Recorded IC50 for Cc1ccnn1CC(C)c1cccc(NC(=O)c2cccc(C(F)(F)F)n2)c1 (stereo not drawn) [Compound 215] with Cbl-b (Homo sapiens, UniProt Q13191), please?
-- reply ≤ 1000 nM

-- ask Recorded IC50 for C[C@@H]1CN(Cc2cc3c(c(C(F)(F)F)c2)CN(c2cccc(C4(Cc5nncn5C)COC4)c2)C3=O)C[C@H](C)O1 [Example 664] with Cbl-b (Homo sapiens, UniProt Q13191), please?
-- reply ≤ 100 nM

-- ask Recorded IC50 for C[C@H](Sc1nncn1C)c1cccc(NC(=O)c2cccc(N(C)C)c2)c1 [Compound 26] with Cbl-b (Homo sapiens, UniProt Q13191), please?
-- reply ≤ 10000 nM

-- ask Recorded IC50 for Cn1cnnc1CC1(c2cccc(N3Cc4c(cc(N5CC(C(F)F)C5)cc4C(F)(F)F)C3=O)c2)COC1 [Example 594] with Cbl-b (Homo sapiens, UniProt Q13191), please?
-- reply ≤ 100 nM

-- ask Recorded IC50 for C[C@H](Sc1nncn1C)c1cccc(NC(=O)c2ccnc(C3CC3)n2)c1 [Compound 76] with Cbl-b (Homo sapiens, UniProt Q13191), please?
-- reply ≤ 100 nM

-- ask Recorded IC50 for CC[C@@H](c1cc2c(c(C(F)(F)F)c1)CN(c1cccc(C3(Cc4nncn4C)COC3)c1)C2=O)N1CC[C@H](F)C1 [Example 545] with Cbl-b (Homo sapiens, UniProt Q13191), please?
-- reply ≤ 100 nM

-- ask Recorded IC50 for C[C@H](Cc1nocc1C(F)(F)F)c1cccc(N2Cc3c(cc(CN4CC[C@H](F)C4)cc3C(F)(F)F)C2=O)c1 [Compound 485] with Cbl-b (Homo sapiens, UniProt Q13191), please?
-- reply ≤ 300 nM

-- ask Recorded IC50 for Cn1cnnc1C(F)(F)[C@@](C)(F)c1cccc(N2Cc3c(cccc3C(F)(F)F)C2=O)c1 [Compound 296b] with Cbl-b (Homo sapiens, UniProt Q13191), please?
-- reply ≤ 10000 nM

-- ask Recorded IC50 for C[C@H](Sc1nncn1C)c1cccc(NC(=O)c2cc(C(F)(F)F)cc(C(F)(F)F)n2)c1 [Compound 64] with Cbl-b (Homo sapiens, UniProt Q13191), please?
-- reply ≤ 1000 nM

-- ask Recorded IC50 for CN(c1cc2c(c(C(F)(F)F)c1)CN(c1cccc([C@@](C)(F)C(F)(F)c3nncn3C)c1)C2=O)[C@@H]1CNC[C@H]1F [Example 551] with Cbl-b (Homo sapiens, UniProt Q13191), please?
-- reply ≤ 100 nM

-- ask Recorded IC50 for C[C@H](Sc1nncn1C)c1cccc(NC(=O)c2cc(NS(=O)(=O)CCO)ccn2)c1 [Compound 86] with Cbl-b (Homo sapiens, UniProt Q13191), please?
-- reply ≤ 10000 nM

-- ask Recorded IC50 for CC(Cc1nccn1C)c1cccc(N2Cc3c(cccc3C(F)(F)F)C2=O)c1 (stereo not drawn) [Compound 267] with Cbl-b (Homo sapiens, UniProt Q13191), please?
-- reply ≤ 10000 nM

-- ask Recorded IC50 for Cn1cnnc1CC1(c2cccc(N3Cc4c(cc(C5=CN6CCC5CC6)cc4C(F)(F)F)C3=O)c2)COC1 [Example 559] with Cbl-b (Homo sapiens, UniProt Q13191), please?
-- reply ≤ 300 nM

-- ask Recorded IC50 for CN1CC2CC(C1)N2c1cc(C(=O)Nc2cccc(C3(Cc4nncn4C)COC3)c2)nc(C2CC2)n1 [Example 572] with Cbl-b (Homo sapiens, UniProt Q13191), please?
-- reply ≤ 100 nM

-- ask Recorded IC50 for Cn1cnnc1CC1(c2cccc(N3Cc4c(cc(C5CC5)nc4C4CC4)C3=O)c2)COC1 [Example 568] with Cbl-b (Homo sapiens, UniProt Q13191), please?
-- reply ≤ 100 nM

-- ask Recorded IC50 for C[C@H](Sc1nncn1C)c1cccc(NC(=O)c2ccc(Cl)c(C(F)(F)F)n2)c1 [Compound 51] with Cbl-b (Homo sapiens, UniProt Q13191), please?
-- reply ≤ 500 nM

-- ask Recorded IC50 for C[C@H](Sc1nncn1C)c1cc(F)cc(N2Cc3c(cccc3C(F)(F)F)C2=O)c1 [Compound 168a] with Cbl-b (Homo sapiens, UniProt Q13191), please?
-- reply ≤ 500 nM

-- ask Recorded IC50 for Cn1cnnc1CC1(c2cccc(N3Cc4c(cc(CN5CCc6cnccc6C5)cc4C(F)(F)F)C3=O)c2)COC1 [Example 648] with Cbl-b (Homo sapiens, UniProt Q13191), please?
-- reply ≤ 100 nM

-- ask Recorded IC50 for C[C@@H](Cc1nncn1C)c1ccnc(N2Cc3c(cccc3C(F)(F)F)C2=O)c1 [Compound 304a] with Cbl-b (Homo sapiens, UniProt Q13191), please?
-- reply ≤ 10000 nM

-- ask Recorded IC50 for C[C@H](Cc1nccn1C)c1cccc(NC(=O)c2cc(C(=O)N3C[C@@H](O)C[C@H]3C)ccn2)c1 [Compound 253] with Cbl-b (Homo sapiens, UniProt Q13191), please?
-- reply ≤ 10000 nM

-- ask Recorded IC50 for CC(CO)Nc1cc(C(C)Sc2nncn2C)cc(N2Cc3c(cccc3C(F)(F)F)C2=O)n1 (stereo not drawn) [Compound 176] with Cbl-b (Homo sapiens, UniProt Q13191), please?
-- reply ≤ 1000 nM

-- ask Recorded IC50 for Cn1cnnc1CC(C)(C)c1cccc(N2Cc3c(cc(C4CC4)cc3C(F)(F)F)C2=O)c1 [Compound 477] with Cbl-b (Homo sapiens, UniProt Q13191), please?
-- reply ≤ 100 nM

-- ask Recorded IC50 for Cn1cnnc1CC(C)(C)c1cccc(NC(=O)c2cc(C(=O)N3CC[C@H](O)C3)cc(C(F)(F)F)n2)c1 [Compound 475] with Cbl-b (Homo sapiens, UniProt Q13191), please?
-- reply ≤ 100 nM

-- ask Recorded IC50 for C[C@@H]1CN(Cc2cc3c(c(C(F)(F)F)c2)CN(c2cccc(C4(Cc5nncn5C)COC4)c2)C3=O)CCO1 [Example 663b] with Cbl-b (Homo sapiens, UniProt Q13191), please?
-- reply ≤ 100 nM

-- ask Recorded IC50 for Cc1cc(C(=O)Nc2cccc(C3(C(F)(F)c4nncn4C)COC3)c2)nc(C2CC2)n1 [Example 676] with Cbl-b (Homo sapiens, UniProt Q13191), please?
-- reply ≤ 100 nM

Attribution: patent US20220324835A1
